// data source = PubChem BioAssay (NCI)

tested on: DMS 273 small cell lung; assay: NCI tumour cell line growth inhibition, 48 h
Property: TGI; scope: individual compounds

[
  {
    "COMPOUND": "O=C1N(c2ccccc2)C2(O)C(=O)c3ccccc3C2(O)N1c1ccccc1 (stereo not drawn)",
    "TGI": "> 100 µM"
  },
  {
    "COMPOUND": "Cc1nc2ccccc2c(=O)n1/N=C(\\N=Nc1ccc(Cl)cc1)c1ccc(N(C)C)cc1",
    "TGI": "> 100 µM"
  },
  {
    "COMPOUND": "CC(=O)NNc1nc(C)c(C(=O)NNC(=O)C(=O)Nc2ccc(C)cc2[N+](=O)[O-])s1",
    "TGI": "> 100 µM"
  }
]

====

Property: TGI; scope: individual compounds
system: HS 578T breast; assay: NCI tumour cell line growth inhibition, 48 h

[
  {
    "COMPOUND": "c1c[nH]c(CN2CCN(Cc3ncc[nH]3)CC2)n1",
    "TGI": "> 100 µM"
  },
  {
    "COMPOUND": "O=C1OCC2=C1C(c1ccc(Cl)cc1)c1cc3c(cc1O2)OCO3 (stereo unspecified)",
    "TGI": "> 72.2 µM"
  },
  {
    "COMPOUND": "Fc1cnccc1-c1nc2ccc3[nH]ncc3c2c2c1CCCC2",
    "TGI": "6.7 µM"
  },
  {
    "COMPOUND": "Nc1ncnc2c1ncn2C1SC(CO)C(O)C1O (stereo unspecified)",
    "TGI": "> 100 µM"
  },
  {
    "COMPOUND": "COc1cc(CCNC2=CC(=O)c3ncccc3C2=O)ccc1O",
    "TGI": "15.6 µM"
  },
  {
    "COMPOUND": "Nc1nc(N)c2nc(CNc3ccc(C(=O)NC(CCC(=O)O)C(=O)O)cc3)cnc2n1 (stereo unspecified)",
    "TGI": "> 100 µM"
  },
  {
    "COMPOUND": "COc1cc(-c2nn(-c3cccc(NC(=O)NCCNC(=O)c4ccccc4)c3)cc2-c2ccncc2)ccc1Cl",
    "TGI": "> 100 µM"
  },
  {
    "COMPOUND": "CN(C)c1ccc(-c2cc(-c3cccc(NS(C)(=O)=O)c3)nc(N)c2C#N)cc1",
    "TGI": "49.2 µM"
  },
  {
    "COMPOUND": "FC(F)(F)c1ccc2c(c1)nc(Cc1ccc(Cl)cc1)n2CC1CCCN2CCCCC12 (stereo unspecified)",
    "TGI": "6.9 µM"
  },
  {
    "COMPOUND": "C[C@H]1CC(=O)C[C@@H]2CC[C@@H]3[C@H](CC[C@]4(C)C(OC(=O)c5cccc6c(=O)c7ccccc7[nH]c56)CC[C@@H]34)[C@]21C (stereo partly specified)",
    "TGI": "> 100 µM"
  },
  {
    "COMPOUND": "CCOC(=O)c1c2ccccc2n2c(=O)n(-c3ccccc3)nnc12",
    "TGI": "> 100 µM"
  },
  {
    "COMPOUND": "N#CCC1CCN(c2nc(Nc3ccc(N4CCC(O)CC4)cc3)c3c(=O)[nH]ncc3n2)CC1",
    "TGI": "1.23 µM"
  },
  {
    "COMPOUND": "O=c1[nH]c2c(ccc3cnccc32)c2c1CCC2",
    "TGI": "0.808 µM"
  },
  {
    "COMPOUND": "O=C1C/C(=C\\c2ccccc2)C(=O)c2ccccc2N1",
    "TGI": "> 100 µM"
  },
  {
    "COMPOUND": "Cc1ccc(Nc2nc3ccccc3nc2NS(=O)(=O)c2ccc(N)cc2)cc1",
    "TGI": "> 100 µM"
  },
  {
    "COMPOUND": "CCN(CC)CCN1C(=O)c2cccc3cc(N)cc(c23)C1=O",
    "TGI": "> 100 µM"
  },
  {
    "COMPOUND": "COc1cc(F)c(F)c(F)c1C(=O)c1cnc(NC2CCN(S(C)(=O)=O)CC2)nc1N",
    "TGI": "18.1 µM"
  },
  {
    "COMPOUND": "CCOP(=O)(OCC)/C(F)=C/c1ccc(F)cc1",
    "TGI": "> 100 µM"
  },
  {
    "COMPOUND": "COc1cc(/C=C2\\C(=O)Nc3ccc(O)cc32)cc(OC)c1OC",
    "TGI": "> 100 µM"
  },
  {
    "COMPOUND": "CCCCCCCCCCCCNC(=O)N[C@H](C(=O)N[C@H]1/C=C/OCCNC(=O)/C=C/[C@H](C(C)C)NC1=O)C(C)C",
    "TGI": "38.1 µM"
  },
  {
    "COMPOUND": "NC(C(=O)O)C(O)c1cnc[nH]1 (stereo unspecified)",
    "TGI": "> 100 µM"
  }
]
